Tested on: Eimeria mitis
method summary: Anticococcidal activity against Eimeria mitis in Chick assessed as reduction in oocyte at 12.5 ppm relative to control
Type: functional
Parameters: scale not given: the % may be the effect or the level left
assay endpoint: Activity (%)
Quick note: give the figure in %, leave out the unit.

Take a look at these entries with their results.
substance smiles: CN(C)Cc1ccn2c(-c3ccnc(Nc4ccccn4)n3)c(-c3ccc(F)cc3)nc2c1
units label: %
Activity: 80
//
substance smiles: CN(C)Cc1ccn2c(-c3ccnc(NCCCO)n3)c(-c3ccc(F)cc3)nc2c1
units label: %
Activity: 80
//
substance smiles: CN(C)Cc1ccn2c(-c3ccnc(NC4CCC4)n3)c(-c3ccc(F)cc3)nc2c1
units label: %
Activity: 50
//
substance smiles: Cc1cc(-c2nc3cc(CN(C)C)ccn3c2-c2ccnc(N)n2)ccc1F
units label: %
Activity: 80
//
substance smiles: CCCC(=O)Nc1nccc(-c2c(-c3ccc(F)cc3)nc3cc(CN(C)C)ccn23)n1
units label: %
Activity: 80

Turning now to a further record.
Answer with the recorded Activity for the compound listed here: CN(C)Cc1ccn2c(-c3ccnc(NC=O)n3)c(-c3ccc(F)cc3)nc2c1
50

* * *

Recorded measurements of Activity, one per entry
System: Eimeria acervulina
method summary: Anticococcidal activity against Eimeria acervulina in Chick assessed as reduction in oocyte at 12.5 ppm relative to control
Type: functional
Design: scale not given: the % may be the effect or the level left
Kindly answer with a numeric value in %, unit omitted.

substance smiles: CN(C)Cc1ccn2c(-c3ccnc(NC4CCC4)n3)c(-c3ccc(F)cc3)nc2c1
target of assay: Eimeria acervulina
reported: 80

# context switch: different compound, same Activity
Recall the reported Activity of COC(=O)Nc1nccc(-c2c(-c3ccc(F)cc3)nc3cc(CN(C)C)ccn23)n1 when tested on Eimeria acervulina.
80

* * *

System: Eimeria tenella
method summary: Anticococcidal activity against Eimeria tenella in Chick assessed as reduction in oocyte at 6.25 ppm relative to control
Assay type: functional
Parameters: scale not given: the % may be the effect or the level left
The following compounds are listed with their measured Activity values.

// known answers, use as guide
substance smiles: CCNc1nccc(-c2c(-c3ccc(F)cc3)nc3cc(CN(C)C)ccn23)n1
assay endpoint: Activity
reported: <50%

substance smiles: CN(C)Cc1ccn2c(-c3ccnc(NC4CC4)n3)c(-c3ccc(F)cc3)nc2c1
assay endpoint: Activity
reported: <50%

Write Activity of CN(C)Cc1ccn2c(-c3ccnc(N)n3)c(-c3ccc(F)cc3)nc2c1 ; system used: Eimeria tenella
<50%

* * *

Test system: Eimeria mitis
method summary: Anticococcidal activity against Eimeria mitis in Chick assessed as reduction in oocyte at 12.5 ppm relative to control
Format: functional
Design: scale not given: the % may be the effect or the level left
Measured Activity by item

Before answering, review these 2 worked examples.
substance smiles: CN(C)Cc1ccn2c(-c3ccnc(NCc4cccc(F)c4)n3)c(-c3ccc(F)cc3)nc2c1
Activity: <50%
//
substance smiles: COC(=O)Nc1nccc(-c2c(-c3ccc(F)cc3)nc3cc(CN(C)C)ccn23)n1
Activity: <50%

Next:
Specify measured Activity for CN(C)Cc1ccn2c(-c3ccnc(NCc4ccc(F)cc4)n3)c(-c3ccc(F)cc3)nc2c1 .
<50%

* * *

Listing of entries alongside the reported Activity.
System: Eimeria acervulina
method summary: Anticococcidal activity against Eimeria acervulina in Chick assessed as reduction in oocyte at 12.5 ppm relative to control
Type: functional
Parameters: scale not given: the % may be the effect or the level left

substance smiles: CN(C)Cc1ccn2c(-c3ccnc(NC(=O)C4CCCC4)n3)c(-c3ccc(F)cc3)nc2c1
reported: <50%
//
substance smiles: CN(C)Cc1ccn2c(-c3ccnc(N)n3)c(-c3c(F)cc(F)cc3F)nc2c1
reported: 80%
//
substance smiles: CN(C)Cc1ccn2c(-c3ccnc(NC=O)n3)c(-c3ccc(F)cc3)nc2c1
reported: 80%
//
substance smiles: Cc1cc(-c2nc3cc(CN(C)C)ccn3c2-c2ccnc(N)n2)ccc1F
reported: 80%
//
substance smiles: CCNc1nccc(-c2c(-c3ccc(F)cc3)nc3cc(CN(C)C)ccn23)n1
reported: 80%

Note down Activity recorded for CN(C)Cc1ccn2c(-c3ccnc(NCc4c(F)cccc4F)n3)c(-c3ccc(F)cc3)nc2c1
<50%

Tell me Activity reported for CN(C)Cc1ccn2c(-c3ccnc(N)n3)c(-c3ccc(Cl)cc3)nc2c1
<50%

* * *

Tested on: Eimeria acervulina
method summary: Anticococcidal activity against Eimeria acervulina in Chick assessed as reduction in oocyte at 12.5 ppm relative to control
Format: functional
Set-up: scale not given: the % may be the effect or the level left
assay endpoint: Activity (%)
# output: bare number, implied unit %

Recorded results for 4 molecules are shown here.
substance smiles: CN(C)Cc1ccn2c(-c3ccnc(NC(=O)C4CC4)n3)c(-c3ccc(F)cc3)nc2c1
Activity, %: 80

substance smiles: CCCC(=O)Nc1nccc(-c2c(-c3ccc(F)cc3)nc3cc(CN(C)C)ccn23)n1
Activity, %: 80

substance smiles: CCCCC(=O)Nc1nccc(-c2c(-c3ccc(F)cc3)nc3cc(CN(C)C)ccn23)n1
Activity, %: 50

substance smiles: CN(C)Cc1ccn2c(-c3ccnc(NC(=O)NC(C)(C)C)n3)c(-c3ccc(F)cc3)nc2c1
Activity, %: 80

Item CN(C)Cc1ccn2c(-c3ccnc(NCc4cccc(F)c4)n3)c(-c3ccc(F)cc3)nc2c1 : provide Activity
50

Give the reported Activity for this molecule. CN(C)Cc1ccn2c(-c3ccnc(NCC4CC4)n3)c(-c3ccc(F)cc3)nc2c1
80

Report Activity for CN(C)Cc1ccn2c(-c3ccnc(NC4CC4)n3)c(-c3ccc(F)cc3)nc2c1
80
